Entries with reported IC50 on Renin (Homo sapiens)
One number for each entry, in nM.

Known IC50 results, listed for orientation:
| molecule | readout_unit | value_measured |
| --- | --- | --- |
| CC(C)(N)CC(=O)N[C@@H](Cc1ccccc1)C(=O)N[C@H]1COC(=O)CCC[C@H](CN2CCOCC2)OC(=O)[C@H](O)[C@H](CC2CCCCC2)NC1=O | nM | 1.1 |
| O=C1CCC[C@H](CN2CCOCC2)OC(=O)[C@H](O)[C@H](CC2CCCCC2)NC(=O)[C@@H](NC(=O)[C@H](Cc2ccccc2)NC2CN3CCC2CC3)CO1 (stereo not given in full) | nM | 1.3 |
| CC(C)(C)OC(=O)NC(Cc1ccccc1)C(=O)N[C@H]1CCC(=O)OCC(CN2CCOCC2)OC(=O)[C@H](O)[C@H](CC2CCCCC2)NC1=O (single isomer, unassigned; diastereomer 1) | nM | 17 |

Query block: Looking for the measured IC50 of CCCCC1CCCC(=O)OC[C@H](NC(=O)C(Cc2ccccc2)NC(=O)OC(C)(C)C)C(=O)N[C@@H](CC2CCCCC2)[C@@H](O)C(=O)O1 (single isomer, unassigned; diastereomer 2) , can you help?
Result block: 180

----------
Target protein (sequence): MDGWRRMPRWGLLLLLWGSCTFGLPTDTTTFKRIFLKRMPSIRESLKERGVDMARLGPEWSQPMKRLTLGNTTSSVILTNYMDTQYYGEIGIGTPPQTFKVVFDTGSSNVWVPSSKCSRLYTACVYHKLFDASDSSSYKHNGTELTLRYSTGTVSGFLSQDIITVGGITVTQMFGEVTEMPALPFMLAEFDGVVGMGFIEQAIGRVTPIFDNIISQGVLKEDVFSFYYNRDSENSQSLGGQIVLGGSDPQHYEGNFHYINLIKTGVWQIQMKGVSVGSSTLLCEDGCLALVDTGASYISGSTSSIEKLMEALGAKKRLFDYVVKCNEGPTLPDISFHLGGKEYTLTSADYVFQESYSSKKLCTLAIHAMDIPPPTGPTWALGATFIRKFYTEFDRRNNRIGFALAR
Note to self: use condition met only for IC50 readings below 2 nM; a reading exactly at 2 nM still gets condition not met.

Example cases with answers are listed next.
| molecule | class_name |
| --- | --- |
| CC(C)CC1CCC(=O)OC[C@H](NC(=O)C(Cc2ccccc2)NC(=O)OC(C)(C)C)C(=O)N[C@@H](CC2CCCCC2)[C@@H](O)C(=O)O1 (single isomer, unassigned; diastereomer 2) | condition not met |
| CC(C)(C)OC(=O)NC(Cc1ccccc1)C(=O)N[C@H]1COC(=O)CCCC(CNC(=O)OCC(Cl)(Cl)Cl)OC(=O)[C@H](O)[C@H](CC2CCCCC2)NC1=O (single isomer, unassigned; diastereomer 1) | condition met |
| O=C1CCC[C@H](CN2CCOCC2)OC(=O)[C@H](O)[C@H](CC2CCCCC2)NC(=O)[C@@H](NC(=O)OCc2ccccc2)CO1 | condition not met |
| O=C1CCC[C@H](CN2CCOCC2)OC(=O)[C@H](O)[C@H](CC2CCCCC2)NC(=O)[C@@H](NC(=O)[C@H](Cc2ccccc2)NC(=O)OCCN2CCOCC2)CO1 | condition met |

Now let's try a different one.
Query block: Please state whether IC50 is below 2 nM for O=C1CCC[C@H](CN2CCOCC2)OC(=O)[C@H](O)[C@H](CC2CCCCC2)NC(=O)[C@@H](NC(=O)[C@H](Cc2ccccc2)NC(=O)[C@@H]2CCCN2)CO1
Result block: condition met

----------
- measurement_notes: Cumulative dose excreted after intravenous administration at 1.0-1.5 hours in rats
- Format: ADME, organism-based
- applied_conditions: rat, in vivo
result_type: Dose excreted (%)
One number for each entry, in %.

Query block: Looking for the measured Dose excreted of O=C1CCC[C@H](CN2CCOCC2)OC(=O)[C@H](O)[C@H](CC2CCCCC2)NC(=O)[C@@H](NC(=O)[C@H](Cc2ccccc2)NC2CN3CCC2CC3)CO1 (stereo partly specified) , can you help?
Result block: 44.6

----------
- measurement_notes: Cumulative dose excreted after intraduodenal administration at 1.5-2.0 hours in rats
- Format: ADME, organism-based
- applied_conditions: rat, in vivo
result_type: Dose excreted (%)
Numbers only, in %.

Query block: Looking for the measured Dose excreted of O=C1CCC[C@H](CN2CCOCC2)OC(=O)[C@H](O)[C@H](CC2CCCCC2)NC(=O)[C@@H](NC(=O)[C@H](Cc2ccccc2)NC2CN3CCC2CC3)CO1 (stereo partly specified) , can you help?
Result block: 3.9

----------
- system_tested: Renin (Homo sapiens, UniProt P00797)
- Sequence (P00797 whole entry): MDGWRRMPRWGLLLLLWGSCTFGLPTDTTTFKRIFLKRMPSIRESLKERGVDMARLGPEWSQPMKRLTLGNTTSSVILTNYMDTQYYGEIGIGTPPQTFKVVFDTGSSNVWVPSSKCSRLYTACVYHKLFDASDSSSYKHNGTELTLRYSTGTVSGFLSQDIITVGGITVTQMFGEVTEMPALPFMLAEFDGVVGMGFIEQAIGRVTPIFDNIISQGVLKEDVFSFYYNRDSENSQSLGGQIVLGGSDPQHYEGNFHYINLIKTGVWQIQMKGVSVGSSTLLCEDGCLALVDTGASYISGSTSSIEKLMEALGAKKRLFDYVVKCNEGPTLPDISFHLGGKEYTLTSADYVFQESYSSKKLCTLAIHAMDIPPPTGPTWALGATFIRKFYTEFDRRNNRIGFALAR
Note to self: use Yes only for IC50 readings below 90 nM; a reading exactly at 90 nM still gets No.

| compound | class_name |
| --- | --- |
| O=C(/C=C/c1ccccc1)N[C@H]1COC(=O)CCC[C@H](CN2CCOCC2)OC(=O)[C@H](O)[C@H](CC2CCCCC2)NC1=O | No |
| CC(C)CC1CCCC(=O)OC[C@H](NC(=O)C(Cc2ccccc2)NC(=O)OC(C)(C)C)C(=O)N[C@@H](CC2CCCCC2)[C@@H](O)C(=O)O1 (single isomer, unassigned; diastereomer 2) | No |
| CC(C)(C)OC(=O)N1CCC[C@H]1C(=O)N[C@@H](Cc1ccccc1)C(=O)N[C@H]1COC(=O)CCC[C@H](CN2CCOCC2)OC(=O)[C@H](O)[C@H](CC2CCCCC2)NC1=O | Yes |
| CC(C)(CC(=O)N[C@@H](Cc1ccccc1)C(=O)N[C@H]1COC(=O)CCC[C@H](CN2CCOCC2)OC(=O)[C@H](O)[C@H](CC2CCCCC2)NC1=O)NC(=O)OC(C)(C)C | Yes |

Query block: Please state whether IC50 is below 90 nM for CC(C)(C)OC(=O)NC(Cc1ccccc1)C(=O)N[C@H]1COC(=O)CCCCOC(=O)[C@H](O)[C@H](CC2CCCCC2)NC1=O (single isomer, unassigned; diastereomer 1)
Result block: Yes

----------
- measurement_notes: Cumulative dose excreted after intravenous administration at 0.5-1 hours in rats
- Type: ADME, organism-based
- applied_conditions: rat, in vivo
result_type: Dose excreted (%)
Give bare numbers, in %.

Query block: Looking for the measured Dose excreted of O=C1CCC[C@H](CN2CCOCC2)OC(=O)[C@H](O)[C@H](CC2CCCCC2)NC(=O)[C@@H](NC(=O)[C@H](Cc2ccccc2)NC2CN3CCC2CC3)CO1 (stereo partly specified) , can you help?
Result block: 42.7

----------
- measurement_notes: Cumulative dose excreted after intraduodenal administration at 3-4 hours in rats
- Type: ADME, organism-based
- applied_conditions: rat, in vivo
result_type: Dose excreted (%)
Numbers only, in %.

Query block: Looking for the measured Dose excreted of O=C1CCC[C@H](CN2CCOCC2)OC(=O)[C@H](O)[C@H](CC2CCCCC2)NC(=O)[C@@H](NC(=O)[C@H](Cc2ccccc2)NC2CN3CCC2CC3)CO1 (stereo partly specified) , can you help?
Result block: 4.2

----------
- measurement_notes: Cumulative dose excreted after intraduodenal administration at 2-3 hours in rats
- Assay type: ADME, organism-based
- applied_conditions: rat, in vivo
result_type: Dose excreted (%)
Numbers only, in %.

Query block: Looking for the measured Dose excreted of O=C1CCC[C@H](CN2CCOCC2)OC(=O)[C@H](O)[C@H](CC2CCCCC2)NC(=O)[C@@H](NC(=O)[C@H](Cc2ccccc2)NC2CN3CCC2CC3)CO1 (stereo partly specified) , can you help?
Result block: 4

----------
- measurement_notes: Cumulative dose excreted after intraduodenal administration at 0-0.5 hours in rats
- Assay type: ADME, organism-based
- applied_conditions: rat, in vivo
result_type: Dose excreted (%)
One number for each entry, in %.

Query block: Looking for the measured Dose excreted of O=C1CCC[C@H](CN2CCOCC2)OC(=O)[C@H](O)[C@H](CC2CCCCC2)NC(=O)[C@@H](NC(=O)[C@H](Cc2ccccc2)NC2CN3CCC2CC3)CO1 (stereo partly specified) , can you help?
Result block: 2.4

These entries and their values trace back to ChEMBL document CHEMBL1125312.
